tested on: SW-620 colon; test: NCI tumour cell line growth inhibition, 48 h
Property: TGI; scope: individual molecules

Examples from the recorded data:
MOLECULE: COC(=O)C1Cc2c([nH]c3ccccc23)-c2[nH]c3ccccc3c2CC(NC(C)=O)C(=O)NCC(=O)N1 (configuration not stated)
ENDPOINT_LABEL: TGI
ASSAY_VALUE: > 100 µM
//
MOLECULE: COC(=O)c1oc2c(C(=O)/C=C/c3ccc(OC)cc3)c(OCCCN3CCCCC3)ccc2c1C
ENDPOINT_LABEL: TGI
ASSAY_VALUE: 3.03 µM
//
MOLECULE: Cn1cc(C(=O)C2CCCCC2)ccc1=O
ENDPOINT_LABEL: TGI
ASSAY_VALUE: > 100 µM
//
MOLECULE: CCOC(=O)[C@H]1Nc2ccc(O)cc2C2c3ccccc3CC21 (some centres not stated)
ENDPOINT_LABEL: TGI
ASSAY_VALUE: > 100 µM

What the record says about `O=C1NC(=NCCc2ccccc2Cl)S/C1=C\c1ccc2ncccc2c1` : TGI is > 25 µM

response.value for `COc1ccc(/C=C(/C(=O)N2CCNCC2)c2cc(OC)c(OC)c(OC)c2)cc1O` (field: TGI) = > 100 µM

// recorded TGI for `O=C(CCN1CCCC1)Nc1ccc2c(NCCCCc3ccccc3)c3ccccc3nc2c1` : 1.86 µM

----------
test system: LOX IMVI melanoma; assay: NCI tumour cell line growth inhibition, 48 h
ENDPOINT_LABEL: TGI (µM)
Dear colleague, please return just the value in µM, with no unit written.

MOLECULE: Cn1c2ccccc2c2c3c(c4c5ccccc5n(CCCCCC#N)c4c21)C(=O)N(O)C3=O
U: µM
TGI: 1.24

TGI for CC1OC(OC2C(CO)OC(O[C@H]3CC[C@@]4(C)C(=CC[C@H]5[C@@H]6C[C@@H]7O[C@](O)(CC[C@@H](C)COC8OC(CO)C(O)C(O)C8O)[C@@H](C)[C@@H]7[C@@]6(C)CC[C@@H]54)C3)C(OC3OC(C)C(O)C(O)C3O)C2O)C(O)C(O)C1O (some centres undefined) is 3.17

So, `COC(=O)c1c(C)nc(C)c(N=O)c1-c1ccccc1C(F)(F)F` ? Its TGI was 30.8

In plain terms, `C=C1C(=O)O[C@H]2[C@H]1CC/C(COC(=O)CCC(=O)OC/C1=C/CC[C@@]3(C)O[C@H]3[C@H]3OC(=O)C(=C)[C@@H]3CC1)=C\CC[C@@]1(C)O[C@@H]21` has a documented TGI of 2.75

The recorded TGI for entry `O=Nc1c(-c2cccc([N+](=O)[O-])c2)nc2ncccn12` equals 27

----------
tested on: SF-268 CNS; test: NCI tumour cell line growth inhibition, 48 h; in the data active = GI50 below about 0.43 µM; inactive = the rest
The reply should be one of these categories: active, inactive

COMPOUND: O=C1c2cccnc2-c2nc(-c3ccc([N+](=O)[O-])cc3)cc3c2c1nc1ccccc13
CLASS_NAME: inactive
--
COMPOUND: CC(=O)OC1CC2(O)C(CCC3(C)C(c4ccc(=O)oc4)CCC32O)C2(C)CCC(O)C=C12 (centres undefined)
CLASS_NAME: active
--
COMPOUND: COc1ccc(-n2c(N)c(C(=O)NCCN3CCOCC3)c3nc4ccccc4nc32)cc1OC
CLASS_NAME: inactive
--
COMPOUND: COc1ccc(C2CC(c3cc(OC)c(OC)c(OC)c3)=NN2)cc1 (centres undefined)
CLASS_NAME: inactive
--
COMPOUND: O=C1NC(=NCCc2ccccc2Cl)S/C1=C\c1ccc2ncccc2c1
CLASS_NAME: inactive
--
COMPOUND: O=[N+]([O-])c1ccc2[nH]cc(-c3c4ccccc4cc4[nH]c5ccc([N+](=O)[O-])cc5c34)c2c1
CLASS_NAME: inactive
--
COMPOUND: Cn1c(=O)c(F)c(Nc2ccc(I)cc2F)c2c(=O)n(C[C@@H](O)CO)cnc21
CLASS_NAME: inactive
--
COMPOUND: CCOc1ccc2c(c1)/C(=C\C=C\C1CC(C)C3CC(OCC)CCC3N1CC)CC(C)N2CC (centres undefined)
CLASS_NAME: inactive

Problem: What call does the record list for `N#C/C(=C/N1CCN(C(=O)c2ccco2)C1=S)C(N)=O` ?
Result: inactive

Problem: Answer briefly: the call reported for `CN(C)/[N+]([O-])=N/Oc1cc(Nc2ccc(C(=O)O)cc2)c([N+](=O)[O-])cc1[N+](=O)[O-]` in this assay.
Result: inactive

Problem: Which outcome did this test record for the compound `CO/N=C1/c2cc(OC)ccc2-c2c(NOC)nc3ccccc3c21` ?
Result: inactive

Problem: Per the records of this test, what outcome belongs to CC(O)CN(CCN(CC(C)O)CC(C)O)CC(C)O.O=[N+]([O-])O.[Cu+2] (centres undefined) ?
Result: inactive

Problem: Given `COc1cc(-c2ccc(-c3ccc(C(=N)N)s3)s2)cc(OC)c1OC` , state the outcome it received in this test.
Result: inactive

Problem: Test call, this compound: `N#Cc1c2ccccc2c2nnc3cc(Cl)c(Cl)cc3n12`
Result: inactive
